Tested on: LYPLA1
Procedure Text: competitive ABPP of pPAFAH versus proteome hydrolases – biochemical, gel-based, FP-Rh fluorescence, complex proteome, SAR compounds, selectivity assay for pPAFAH inhibitor project, SAR follow-up (AID 588774)
Test Settings: inhibition, at 1 µM, stronger effect = higher value
Please use t whenever inhibition is not below 50%, and f whenever it is.

Could you verify whether the entry COc1ccc(-c2cnn(C(=O)N3CCN(c4cc(C)nc5ccccc45)CC3)n2)cc1 shows inhibition of no less than 50%?
t

Could you verify whether the entry Cc1cc(N2CCN(C(=O)n3oc4cc(Cl)ccc4c3=O)CC2)c2ccccc2n1 shows inhibition of no less than 50%?
f

Could you verify whether the entry Cc1cc(N2CCN(C(=O)Oc3noc4cc(Cl)ccc34)CC2)c2ccccc2n1 shows inhibition of no less than 50%?
f

Could you verify whether the entry Cc1cc(N2CCN(C(=O)n3ncc(-c4ccccc4)n3)CC2)c2ccccc2n1 shows inhibition of no less than 50%?
t

Could you verify whether the entry Cc1cc(N2CCN(C(=O)n3ncc(-c4ccc(Cl)c(Cl)c4)n3)CC2)c2ccccc2n1 shows inhibition of no less than 50%?
f

Could you verify whether the entry Cc1cc(N2CCN(C(=O)n3ncc(-c4ccc([N+](=O)[O-])cc4)n3)CC2)c2ccccc2n1 shows inhibition of no less than 50%?
t

Could you verify whether the entry O=C(N1CCOCC1)n1oc2cc(Cl)ccc2c1=O shows inhibition of no less than 50%?
f
